src = paper PMC8396344

target: Y5 (Homo sapiens)
Construct: host or cells: U2OS
Sequence (Q15761 whole entry): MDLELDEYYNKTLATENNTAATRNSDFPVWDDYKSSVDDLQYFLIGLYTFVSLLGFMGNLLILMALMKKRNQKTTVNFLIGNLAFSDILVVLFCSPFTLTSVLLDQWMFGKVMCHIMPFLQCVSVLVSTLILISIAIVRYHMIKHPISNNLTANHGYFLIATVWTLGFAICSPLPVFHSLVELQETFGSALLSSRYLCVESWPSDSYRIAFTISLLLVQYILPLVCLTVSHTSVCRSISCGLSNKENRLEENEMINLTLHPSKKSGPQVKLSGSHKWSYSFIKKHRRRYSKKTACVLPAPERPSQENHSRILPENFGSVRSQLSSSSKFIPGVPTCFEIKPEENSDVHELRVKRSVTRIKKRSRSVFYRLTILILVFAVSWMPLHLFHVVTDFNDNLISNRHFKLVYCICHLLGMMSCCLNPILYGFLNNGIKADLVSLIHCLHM
experimentSummary: Competitive and saturation binding, [^125I]-PYY, U2OS cells with Y5
No end group written: not given here.
measureName: pKi
// returns pKi (minus log10 of molar concentration), number only

Entry SRAHQHSMETRTPDINPAWYTGRGIRPVGRF-NH2 [PrRP31, prolactin-releasing peptide 31, reference compound] — recorded pKi = 5.54
